system-under-test: T1, CXCR4-Rluc8 (human, UniProt P61073 1-352)
T1 construct: C-X-C chemokine receptor type 4 (CXCR4), human cDNA from the Missouri S&T cDNA Resource Center; source: HEK293A, transiently transfected, in cells; not shown: Rluc8, C-terminal, kept
T1 sequence (P61073 whole entry): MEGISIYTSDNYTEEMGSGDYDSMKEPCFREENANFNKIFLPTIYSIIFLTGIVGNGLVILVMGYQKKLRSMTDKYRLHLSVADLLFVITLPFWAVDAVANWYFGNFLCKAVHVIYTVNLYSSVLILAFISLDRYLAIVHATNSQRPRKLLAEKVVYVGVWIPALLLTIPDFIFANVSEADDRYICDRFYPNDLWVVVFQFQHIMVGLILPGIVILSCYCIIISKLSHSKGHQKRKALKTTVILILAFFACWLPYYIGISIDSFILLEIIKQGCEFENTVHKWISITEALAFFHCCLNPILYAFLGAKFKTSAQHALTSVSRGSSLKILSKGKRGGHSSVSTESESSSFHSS
assay-comment: FRET or BRET; quantitative BRET saturation in HEK293A cells: fixed amount of Rluc8-tagged donor, increasing amounts of mCit-tagged acceptor, coelenterazine h 5 µM; no ligand, no further receptor coexpressed
measurement-setup: partners not purified
measured-parameter: BRET50
When you answer, write just the number.

Lookup: Consider the binder mCit-tagged S1P3(TM4) (receptor, human, S1P3, human, the part before the printed TM4 stretch (NKRHRV...); TM4 of S1P1, human, put in place of TM4 of S1P3; S1P3, human, the part after the printed TM4 stretch (...NLPDCS); TM4 of S1P3 ([residues removed]) replaced with TM4 of S1P1; source: HEK293A, transiently transfected, in cells; not shown: mCitrine (mCit), C-terminal, kept) MATALPPRLQPVRGNETLREHYQYVGKLAGRLKEASEGSTLTTVLFLVICSFIVLENLMVLIAIWKNNKFHNRMYFFIGNLALCDLLAGIAYKVNILMSGKKTFSLSPTVWFLREGSMFVALGASTCSLLAIAIERHLTMIKMRPYDASNNFRLFLLISACWVISLILGGLPIMGWNCISALSSCSTILPLYSKKYIAFCISIFTAILVTIVILYARIYFLVKSSSRKVANHNNSERSMALLRTVVIVVSVFIACWSPLFILFLIDVACRVQACPILFKAQWFIVLAVLNSAMNPVIYTLASKEMRRAFFRLVCNCLVRGRGARASPIQPALDPSRSKSSSSNNSSHSPKVKEDLPHTAPSSCIMDKNAALQNGIFCN and give its recorded BRET50.
Found: 12.7
